Below are compounds with their log10 of Ki as measured on Carbonic anhydrase 1 (Homo sapiens).
Sequence (P00915 whole entry): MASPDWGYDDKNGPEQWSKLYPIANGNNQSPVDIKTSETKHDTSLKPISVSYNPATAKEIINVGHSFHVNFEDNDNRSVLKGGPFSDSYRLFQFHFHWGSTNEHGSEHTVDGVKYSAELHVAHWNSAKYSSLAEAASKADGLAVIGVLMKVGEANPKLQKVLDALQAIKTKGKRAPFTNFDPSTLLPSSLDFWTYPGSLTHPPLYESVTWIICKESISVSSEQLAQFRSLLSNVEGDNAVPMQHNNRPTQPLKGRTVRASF
Units before log transform: µM; reported quantity: Ki; transform: log10.

Determine reported log10 of Ki for Cn1nc(S(N)(=O)=O)s/c1=N\S(=O)(=O)c1ccc(N)cc1 ; test system: Carbonic anhydrase 1 (Homo sapiens). -3.00

Further cases:
Given CNCC(=O)Nc1ccc(S(N)(=O)=O)cc1Br , report its log10 of Ki on Carbonic anhydrase 1 (Homo sapiens). -0.27

Name the value of log10 of Ki reported for Nc1ccc(S(=O)(=O)Nc2cccc(S(N)(=O)=O)c2)cc1 when tested on Carbonic anhydrase 1 (Homo sapiens). -1.36

Give reported log10 of Ki for CNCC(=O)Nc1nccc(Nc2ccc(S(N)(=O)=O)cc2)n1 (Carbonic anhydrase 1 (Homo sapiens)) -1.22

Report log10 of Ki from Carbonic anhydrase 1 (Homo sapiens) testing of NCC(=O)NCC(=O)Nc1ccccc1S(N)(=O)=O 1.37

State recorded log10 of Ki with Carbonic anhydrase 1 (Homo sapiens), entry NCC(=O)Nc1ccc2nc(S(N)(=O)=O)sc2c1 , no comment. -1.77
